molecular target: T1, biotin-labeled human CD137 fused to human IgG1 Fc fragment (human, biotin-labeled); assay: competitive bead ELISA, IgG on biotin-human CD137-Fc, competitor free CD3 epsilon peptide 125 pmol/well;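 also: bead ELISA on streptavidin-coated magnetic beads, with the signal read as well fluorescence 2 min after APS-5 addition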
T1 construct: Immobilised on streptavidin beads through biotin; also called human CD137-Fc; biotin-human CD137-Fc
observation type: ELISA signal, free CD3e 125 pmol/well
Provide a numeric answer; units are not to be included.

dBBDu125 (antibody, human IgG1, V domains shown, IgG: VH joined to human IgG1 CH1-Fc, GLS3000 as light chain; also called DXDU01_3_#019; DXDU01_3 #019) VH: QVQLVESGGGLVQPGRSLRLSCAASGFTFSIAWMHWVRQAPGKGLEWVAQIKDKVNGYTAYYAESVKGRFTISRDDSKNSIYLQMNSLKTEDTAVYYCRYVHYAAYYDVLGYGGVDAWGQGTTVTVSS VL: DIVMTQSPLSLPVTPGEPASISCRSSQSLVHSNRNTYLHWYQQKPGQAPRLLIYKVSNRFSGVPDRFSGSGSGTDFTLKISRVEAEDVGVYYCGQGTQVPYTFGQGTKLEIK : 2060

Lookup: Using the record for dBBDu217 (antibody, human IgG1, V domains shown, IgG: VH joined to human IgG1 CH1-Fc, GLS3000 as light chain) VH: QVQLVESGGGLVQPGRSLRLSCAASGFTFSNAWMHWVRQAPGKGLEWVAQIKDRQQGYATYYAPSVKGRFTISRDDSKNSIYLQMNSLKTEDTAVYYCRFVHYHLAGYGYYGVDAWGQGTTVTVSS VL: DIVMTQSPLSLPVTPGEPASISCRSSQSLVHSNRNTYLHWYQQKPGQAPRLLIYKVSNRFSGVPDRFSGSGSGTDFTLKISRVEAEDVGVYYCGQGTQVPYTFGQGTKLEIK , report its ELISA signal, free CD3e 125 pmol/well.
Found: 2420

Lookup: Using the record for dBBDu167 (antibody, human IgG1, V domains shown, IgG: VH joined to human IgG1 CH1-Fc, GLS3000 as light chain) VH: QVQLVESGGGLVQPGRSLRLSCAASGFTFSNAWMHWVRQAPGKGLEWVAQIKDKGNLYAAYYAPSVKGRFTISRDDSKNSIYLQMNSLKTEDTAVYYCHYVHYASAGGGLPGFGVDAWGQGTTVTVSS VL: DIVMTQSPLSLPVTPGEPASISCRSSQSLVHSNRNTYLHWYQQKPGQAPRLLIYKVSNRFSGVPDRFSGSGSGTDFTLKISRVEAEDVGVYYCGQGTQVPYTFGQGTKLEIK , report its ELISA signal, free CD3e 125 pmol/well.
Found: 1940

// provenance: patent US20240270846A1
